# Tested on: Human aortic smooth muscle cells
# MEASUREMENT DESCRIPTION: Smooth muscle cell proliferation assay (anti-proliferation assay, perlecan)
# Assay type: cell-based
# MEASUREMENT CONTEXT: anti-proliferation assay (perlecan); read-out: Activity (note 1)
PROPERTY: IC50

In: Which IC50 is reported for this compound? CCN(CC)c1ccc(Nc2nc(NCC3CCCN3CC)nc(NC3CCCCCC3)n2)cc1Cl (stereo not shown) [Compound 163]
Out: > 7 µM

====

# Test system: endothelial cells
# MEASUREMENT DESCRIPTION: Toxicity to endothelial cells when AGE stimulated
# Assay type: cell-based, human

>  <COMPOUND>
COc1ccc(Nc2nc(Nc3ccc(OC)c(Cl)c3)nc(N(C)C3CCN(C)CC3)n2)cc1Cl

>  <Toxic (AGE-treated)>
toxic

$$$$
>  <COMPOUND>
COc1ccc(Nc2nc(NC3CCCCCC3)nc(N(C)C3CCNCC3)n2)cc1F

>  <Toxic (AGE-treated)>
toxic

$$$$
>  <COMPOUND>
CCN1CCCC1CNc1nc(Nc2ccc(OC)c(Cl)c2)nc(NC2CN3CCC2CC3)n1 (stereo not shown)

>  <Toxic (AGE-treated)>
toxic

$$$$
>  <COMPOUND>
CN1CCC(N(C)c2nc(Nc3ccc(O)c(Cl)c3)nc(NC3CCCCCC3)n2)CC1

>  <Toxic (AGE-treated)>
toxic

$$$$
